- measurement.protocol: yeast display, Sf9 membrane polyspecificity reagent, FACS + sequencing; frameworks hold sequencing errors
quantity.kind: polyreactivity (PSR sort gate)

INSERT INTO assay_data (chain, quantity_kind, recorded_result) VALUES
  ('QVQLVESGGGLVQAGGSLRLSCAASGFIFNKYAMGWYRQAPGKERQLVATIRRDGSTNYADSVKGRFTISRDNAKNTVYLQMNSLKPEDTAVYYCAVRPYYWSRDYYWGQGTQVTVSS', 'polyreactivity (PSR sort gate)', 'high polyreactivity'),
  ('QVQLVESGGGLVQAGGSLRLSCAASGRIFQYYTMGWYRQAPGKERELVAAISYGGGSTYYADSVKGRFTISRDHAKNTVYLQMNSLKPEDTAVYYCNAVTYSRRYAYYYWGQGTQVTVSS', 'polyreactivity (PSR sort gate)', 'high polyreactivity'),
  ('QVQLVESGGGLVQAGGSLRLSCAASGITFALYAMGWYRQAPGKERELVAAISYSGGRTYYADSVKGRFTISRDNAKNTVYLQMNSLKPEDTAVYYCAAGGSGSGPYGYGYWGQGTQVTVSS', 'polyreactivity (PSR sort gate)', 'high polyreactivity'),
  ('QVQLVESGGGLVQAGGSLRLSCAASGRTFGSYAMGWYRQAPGKERELVAAISSGGRTYYADSVKGRFTISRDNAKNTVYLQMNSLKPEDTAVYYCAARLISYKTPGGYNYWGQGTQVTVSS', 'polyreactivity (PSR sort gate)', 'high polyreactivity'),
  ('QVQLVESGGGLVQAGGSLRLSCAASGFTFAQYAMGWYRQAPGKERELVATISRRGGSTYYADSVKGRFTISRDNAKNTVYLQMNSLKPEDTAVYYCTAAKYLYRHGFLSAGDMYYWGQGTQVTVSS', 'polyreactivity (PSR sort gate)', 'high polyreactivity');
